System: Rattus norvegicus
EXPERIMENT_NOTES: Antiinflammatory activity in Wistar rat assessed as inhibition of carrageenan-induced paw edema measured after 2 hrs at 6 mg/kg, po equimolar dose of indomethacin administered 1 hr before carrageenan challenge
Format: functional
inhibition in vivo values for the molecules below.

[
  {
    "SAMPLE_SMILES": "CCOC(=O)c1c(-c2ccccc2)n(-c2ccc(C(=O)NNC(=O)CO[N+](=O)[O-])cc2)[nH]c1=O",
    "inhibition in vivo (%)": 57.8
  },
  {
    "SAMPLE_SMILES": "CCOC(=O)c1c(-c2ccccc2OC)n(-c2ccc(C(=O)NNC(=O)CO[N+](=O)[O-])cc2)[nH]c1=O",
    "inhibition in vivo (%)": 30.7
  },
  {
    "SAMPLE_SMILES": "O=C(CO[N+](=O)[O-])NNC(=O)c1ccc(-n2[nH]c(=O)cc2-c2ccccc2O)cc1",
    "inhibition in vivo (%)": 19.3
  },
  {
    "SAMPLE_SMILES": "O=C(CO[N+](=O)[O-])NNC(=O)c1ccc(-n2[nH]c(=O)cc2-c2ccccc2)cc1",
    "inhibition in vivo (%)": 16.1
  }
]

----------
System: Rattus norvegicus
EXPERIMENT_NOTES: Gastrointestinal toxicity in Wistar rat assessed as ulcer index at 38.27 mg/kg, po
Format: organism-based
Design: dose 38.27 mg/kg, route oral
CONDITION_INFO: in vivo

[
  {
    "SAMPLE_SMILES": "COc1ccccc1-c1cc(=O)[nH]n1-c1ccc(C(=O)NNC(=O)CO[N+](=O)[O-])cc1",
    "MEASURED_ON": "Rattus norvegicus",
    "Activity": "Non-toxic"
  },
  {
    "SAMPLE_SMILES": "O=C(CO[N+](=O)[O-])NNC(=O)c1ccc(-n2[nH]c(=O)cc2-c2ccc([N+](=O)[O-])cc2)cc1",
    "MEASURED_ON": "Rattus norvegicus",
    "Activity": "Non-toxic"
  },
  {
    "SAMPLE_SMILES": "CCOC(=O)c1c(-c2ccccc2)n(-c2ccc(C(=O)NNC(=O)CO[N+](=O)[O-])cc2)[nH]c1=O",
    "MEASURED_ON": "Rattus norvegicus",
    "Activity": "Non-toxic"
  },
  {
    "SAMPLE_SMILES": "CCOC(=O)c1c(-c2ccccc2OC)n(-c2ccc(C(=O)NNC(=O)CO[N+](=O)[O-])cc2)[nH]c1=O",
    "MEASURED_ON": "Rattus norvegicus",
    "Activity": "Non-toxic"
  }
]

----------
EXPERIMENT_NOTES: Induction of nitric oxide release at 0.1 mM in pH 7.4 phosphate buffer in presence of 5 mM L-cysteine by Griess method
CONDITION_INFO: pH 7.4, 100 µM
Outcome: Yes for Activity of at least 0.5%; No for anything lower.

[
  {
    "SAMPLE_SMILES": "O=C(CO[N+](=O)[O-])NNC(=O)c1ccc(-n2[nH]c(=O)cc2-c2ccccc2O)cc1",
    "CLASS_ASSIGNMENT": "Yes"
  },
  {
    "SAMPLE_SMILES": "CCOC(=O)c1c(-c2ccc(Cl)cc2)n(-c2ccc(C(=O)NNC(=O)CO[N+](=O)[O-])cc2)[nH]c1=O",
    "CLASS_ASSIGNMENT": "No"
  },
  {
    "SAMPLE_SMILES": "O=C(CO[N+](=O)[O-])NNC(=O)c1ccc(-n2[nH]c(=O)cc2-c2ccc([N+](=O)[O-])cc2)cc1",
    "CLASS_ASSIGNMENT": "No"
  },
  {
    "SAMPLE_SMILES": "CCOC(=O)c1c(-c2ccccc2O)n(-c2ccc(C(=O)NNC(=O)CO[N+](=O)[O-])cc2)[nH]c1=O",
    "CLASS_ASSIGNMENT": "No"
  },
  {
    "SAMPLE_SMILES": "COc1ccccc1-c1cc(=O)[nH]n1-c1ccc(C(=O)NNC(=O)CO[N+](=O)[O-])cc1",
    "CLASS_ASSIGNMENT": "No"
  },
  {
    "SAMPLE_SMILES": "CCOC(=O)c1c(-c2ccccc2)n(-c2ccc(C(=O)NNC(=O)CO[N+](=O)[O-])cc2)[nH]c1=O",
    "CLASS_ASSIGNMENT": "No"
  },
  {
    "SAMPLE_SMILES": "CCOC(=O)c1c(-c2ccccc2OC)n(-c2ccc(C(=O)NNC(=O)CO[N+](=O)[O-])cc2)[nH]c1=O",
    "CLASS_ASSIGNMENT": "No"
  },
  {
    "SAMPLE_SMILES": "O=C(CO[N+](=O)[O-])NNC(=O)c1ccc(-n2[nH]c(=O)cc2-c2ccc(Cl)cc2)cc1",
    "CLASS_ASSIGNMENT": "Yes"
  }
]

----------
Tested on: Rattus norvegicus
EXPERIMENT_NOTES: Gastrointestinal toxicity in Wistar rat assessed as gastric mucosal layer disruption at 34.84 mg/kg, po by histopathological study
Assay type: organism-based, Gastric mucosa
Design: dose 34.84 mg/kg, route oral
CONDITION_INFO: in vivo
RECORDED_METRIC: Activity

[
  {
    "SAMPLE_SMILES": "CCOC(=O)c1c(-c2ccccc2)n(-c2ccc(C(=O)NNC(=O)CO[N+](=O)[O-])cc2)[nH]c1=O",
    "RESULT": "Non-toxic"
  },
  {
    "SAMPLE_SMILES": "COc1ccccc1-c1cc(=O)[nH]n1-c1ccc(C(=O)NNC(=O)CO[N+](=O)[O-])cc1",
    "RESULT": "Non-toxic"
  },
  {
    "SAMPLE_SMILES": "CCOC(=O)c1c(-c2ccccc2OC)n(-c2ccc(C(=O)NNC(=O)CO[N+](=O)[O-])cc2)[nH]c1=O",
    "RESULT": "Non-toxic"
  },
  {
    "SAMPLE_SMILES": "O=C(CO[N+](=O)[O-])NNC(=O)c1ccc(-n2[nH]c(=O)cc2-c2ccc([N+](=O)[O-])cc2)cc1",
    "RESULT": "Non-toxic"
  }
]

----------
Tested on: Rattus norvegicus
EXPERIMENT_NOTES: Antiinflammatory activity in Wistar rat assessed as inhibition of carrageenan-induced paw edema measured after 2 hrs at 6 mg/kg, po equimolar dose of indomethacin administered 1 hr before carrageenan challenge
Assay type: functional
RECORDED_METRIC: inhibition in vivo

[
  {
    "SAMPLE_SMILES": "O=C(CO[N+](=O)[O-])NNC(=O)c1ccc(-n2[nH]c(=O)cc2-c2ccc(Cl)cc2)cc1",
    "RECORDED_METRIC": "inhibition in vivo",
    "RESULT": "11.4%"
  },
  {
    "SAMPLE_SMILES": "COc1ccccc1-c1cc(=O)[nH]n1-c1ccc(C(=O)NNC(=O)CO[N+](=O)[O-])cc1",
    "RECORDED_METRIC": "inhibition in vivo",
    "RESULT": "55.7%"
  },
  {
    "SAMPLE_SMILES": "CCOC(=O)c1c(-c2ccc(Cl)cc2)n(-c2ccc(C(=O)NNC(=O)CO[N+](=O)[O-])cc2)[nH]c1=O",
    "RECORDED_METRIC": "inhibition in vivo",
    "RESULT": "10.4%"
  },
  {
    "SAMPLE_SMILES": "CCOC(=O)c1c(-c2ccccc2O)n(-c2ccc(C(=O)NNC(=O)CO[N+](=O)[O-])cc2)[nH]c1=O",
    "RECORDED_METRIC": "inhibition in vivo",
    "RESULT": "26.6%"
  },
  {
    "SAMPLE_SMILES": "CCOC(=O)c1c(-c2ccc([N+](=O)[O-])cc2)n(-c2ccc(C(=O)NNC(=O)CO[N+](=O)[O-])cc2)[nH]c1=O",
    "RECORDED_METRIC": "inhibition in vivo",
    "RESULT": "28.1%"
  },
  {
    "SAMPLE_SMILES": "O=C(CO[N+](=O)[O-])NNC(=O)c1ccc(-n2[nH]c(=O)cc2-c2ccc([N+](=O)[O-])cc2)cc1",
    "RECORDED_METRIC": "inhibition in vivo",
    "RESULT": "27.1%"
  }
]

----------
System: Rattus norvegicus
EXPERIMENT_NOTES: Gastrointestinal toxicity in Wistar rat assessed as ulcer index at 34.84 mg/kg, po
Format: organism-based
Parameters: dose 34.84 mg/kg, route oral
CONDITION_INFO: in vivo
RECORDED_METRIC: Activity

[
  {
    "SAMPLE_SMILES": "COc1ccccc1-c1cc(=O)[nH]n1-c1ccc(C(=O)NNC(=O)CO[N+](=O)[O-])cc1",
    "RESULT": "Non-toxic"
  },
  {
    "SAMPLE_SMILES": "CCOC(=O)c1c(-c2ccccc2)n(-c2ccc(C(=O)NNC(=O)CO[N+](=O)[O-])cc2)[nH]c1=O",
    "RESULT": "Non-toxic"
  },
  {
    "SAMPLE_SMILES": "CCOC(=O)c1c(-c2ccccc2OC)n(-c2ccc(C(=O)NNC(=O)CO[N+](=O)[O-])cc2)[nH]c1=O",
    "RESULT": "Non-toxic"
  },
  {
    "SAMPLE_SMILES": "O=C(CO[N+](=O)[O-])NNC(=O)c1ccc(-n2[nH]c(=O)cc2-c2ccc([N+](=O)[O-])cc2)cc1",
    "RESULT": "Non-toxic"
  }
]
